Where these numbers come from: patent US11149031B2

// log10 IC50 lookup, one value per entry
Target: His6-ERα298-554 D538G mutant (ERα ligand-binding domain) (Homo sapiens (Human), UniProt P03372, D538G)
Sequence (P03372 298-554 D538G): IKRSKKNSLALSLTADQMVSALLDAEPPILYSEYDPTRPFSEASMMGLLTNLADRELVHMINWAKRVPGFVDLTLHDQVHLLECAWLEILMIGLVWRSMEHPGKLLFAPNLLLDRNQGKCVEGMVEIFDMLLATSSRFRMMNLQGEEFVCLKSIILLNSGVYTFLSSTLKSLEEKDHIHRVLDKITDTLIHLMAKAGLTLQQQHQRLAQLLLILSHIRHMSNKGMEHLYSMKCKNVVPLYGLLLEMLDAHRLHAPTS
Assay: Test A: biochemical antagonist activity, LanthaScreen TR-FRET ERα coactivator assay, D538G mutant
Conditions: asterisk (*): protocol using 10 nM estradiol; read-out: Antagonism D538G IC50
Transform log10 | Measure IC50 | Unit nM

COMPOUND	log10 IC50
Cc1ccc(C2=C(c3ccc(O[C@H]4CCN(CCCF)C4)cc3)c3ccc(O)cc3SC2)c(Cl)n1 [Example 56]	2.86
CC(C)(O)c1ccc(C2=C(c3ccc(O[C@H]4CCN(CCCF)C4)cc3)c3ccc(O)cc3SC2)c(F)c1 [Example 33]	3.23
Cc1ccc(C2=C(c3cnc(O[C@H]4CCN(CCCF)C4)nc3)c3ccc(O)cc3SC2)c(F)c1 [Example 77]	2.51
COc1ccc(C2=C(c3ccc(O[C@H]4CCN(CCCF)C4)cc3)c3ccc(O)cc3SC2)c(F)n1 [Example 45]	1.53
CCOc1ccc(C2=C(c3ccc(O[C@H]4CCN(CCCF)C4)nc3)c3ccc(O)c(F)c3CCC2)c(F)n1 [Example 252]	0.90
[O-][S+]1CCC(c2ccc(OC(F)(F)F)cc2)=C(c2ccc(O[C@H]3CCN(CCCF)C3)cc2)c2ccc(O)cc21 (single isomer, unassigned) [Example 227]	3.52
CCOc1ccc(C2=C(c3ccc(O[C@H]4CCN(CCCF)C4)cc3)c3ccc(O)cc3SCC2)c(F)c1F [Example 217]	1.79
CCOc1ccc(C2=C(c3ccc(O[C@H]4CCN(CCCF)C4)cc3)c3ccc(O)cc3SCC2)c(F)c1Cl [Example 221]	2.42
Oc1ccc2c(c1)CCCC(c1ccc(Cl)cc1Cl)=C2c1ccc(O[C@H]2CCN(CCCF)C2)nc1 [Example 239]	1.11

Consider the record given below.
Find the recorded log10 IC50 belonging to CCOc1ccc(C2=C(c3cnc(O[C@H]4CCN(CCCF)C4)nc3)c3ccc(O)cc3CCC2)c(F)n1 [Example 251] and report it.
2.02
